test: soluble on expression in E. coli; label from the status in PepcDB or PDB records

{"seqText": "MRERLKGVIKKGVKVFFTDESGIHHDPSKVRRLGLYNVPVDYPSRKLNVLASIPLFDGVPCFMSTYSNVNFKIFAEFLRLFRNSGPIVLILDSAKFHKNAYVFSVASQLGITLLFLPPYSPDLNPIEFGGTWFVG", "soluble on expression in E. coli": "soluble"}
{"seqText": "MQTSIDPVFAGWDGSVAQARQLQQQLAQRVALRDEVSAAPALLAGFDVGFEDDGQTTRAAAVLLDAQTLLPLETHVARVPTSMPYVPGLLSFRELPALLRALALLARTPDLVFIDGQGIAHPRRFGIAAHFGVVTGLPSIGVAKQRLAGTFIEPGGERGDHSPILLAGAQIGWALRSKPRCNPLIVSPGHRVSMQGALDWTLRTLRAYRLPEPTRLADRLASRRGEIELQTQPTLLLEHHHHHH", "soluble on expression in E. coli": "not soluble"}
{"seqText": "MMRTWQSKLHVTQHEVKLLVTCPEQGDVLKARLPPHARHPRALLTLLEGLSLYNGQPQRIALHVDERFRLTAGLFGDELWPGESPLVQYDVAHRARQCGRLSGIGDFRALRRGSP", "soluble on expression in E. coli": "not soluble"}
{"seqText": "MASGDITRYVITVTFHEDSLTEINELNNHLTRSGFLLTLTDDEGDVHELGTNTFGFVSAQSADEIKALVAGLAKSALDKDVDITVATWEAWSKNAQ", "soluble on expression in E. coli": "not soluble"}
{"seqText": "MSLSYVHTEIQNDALYITLDYPEKKNGLDAELGTSLLEAIRAGNNETSIHSIILQSKHRAYFSSGPRLEDLLICASDQSDVRLREVLHVLNHCVLEIFTSPKVTVALINGYAYGGGFNMMLACDRRIALRRAKFLENFHKMGISPDLGASYFLPRIIGYEQTMNLLLEGKLFTSEEALRLGLIQEICENKQELQERVKNYLKAVSEGYVPAIAATKKLLKGKAAEELKQQLEQETEELVALFKQTEIKKRLEALVEGHHHHHH", "soluble on expression in E. coli": "soluble"}
{"seqText": "SLETYGDSLATAVAERWNNHQAFIFGLATGAVVRLIAPLLQSKQSDPAVLVVDAMGQSVISLLSGHQGGGDRLAQIVAEQLQAKAILTGGANGLGQIAVDCLGIPFGWRKGKGDWTAVSSALAAQKLVGVTQTAGLTLWQNHLPPGHGFTFSGTKETTATLLITVQESNLEKLNKPMAPWHPRLLWIGVGCVRGTDLALLERALLEVLERENLSPLAIAGLASVHLKADEVGMQQFAQKYDLPFFTFPPEQLAAQAVPNPSEVVLQEVGTPSVAEAAALTAAQMYSQGGKLIAEKVIVKQHNQAVTVAIAKGE", "soluble on expression in E. coli": "not soluble"}
{"seqText": "MQYINYRENRRRGTADFPLEYYHVTASHPQYVMSFHWHVEFELIRILSGSLTVTIDEIEFLAEAGDSIFIPAGSIHSGIPDDCVYECLVFDMNMLMNKTDSCCRFLRQITDHEVSVQTHYPKICNTIHRTLWTLFDAAASKKEGYQLVVFGAMYQFFGTLFSEGFCKNAPDEEHRSHKRILQLKQALEFMESSYNLPLTLEEISGSVNMSPKYFCRFFHEMTHRTPIDYLNYYRIERACYQLITTNLSITEIAYASGFNDLSYFIKTFKKYKGTTPKKYLKI", "soluble on expression in E. coli": "not soluble"}
{"seqText": "EIRVFETAPEGLKILKDSEVVINTTTKEVAKNNQFSVSDASGTYNMVNDVKVG", "soluble on expression in E. coli": "soluble"}
{"seqText": "MGSDKIHHHHHHMNPCGFNKCYIQPSADLSVSLQIVSGKSRASISEIGSHMDSLQIDGLDILLHSYDGSPTHFGSAFLFPYANRVKDARYVMDGVEYRLPNNEGKNSIHGLVLDKNFSVISREEESITMETSIAGGEAYPSDLSVRISHSVDETSYRCEVTVINKGVKRSPIAAGFHPYFVYKNKWAIIKPETAWIMEYDGPFPTGKMDRMTFGDISYLNAYDNQFFADSDIIVDVGYSRLKITRNNMPFFVIYNGRYSAGSSVAIEPMMSAVDSFNNGIGLRLLNPGDTMKFGYSIDIV", "soluble on expression in E. coli": "not soluble"}
{"seqText": "MSLNRDQSDLHIDELLADPFGGNIEIPGSEAVKAEKEQVRLVDVLPEENKEKAIQLAGQIDHKNMQSIVLYGSQAQSKLLNFSHDMINHVQKKDVGEIGEILGELMKKLEQVNPDDLQSKKKGFLARMFGRVSSSLQEVLSKYQKTSVQIDRISLKLEHSKNALISDNKLLEQLYEKNKEYFAALNVYIAAGELKLEELKTKTIPELKQQAESSDHNQMAVQEVNDLIQFADRLDKRVHDLLLSRQITIQSAPQIRLIQNTNQALAEKIQSSIVTAIPLWKNQVAIALTLLRQRNAVDAQQKVSDTTNELLLKNAELLKTNTIETARANERGLVDIDTLKKVQESLISTLEETLTIQEEGRIKRRQAEEELMMMEGDLKQKLITIKEREGHHHHHH", "soluble on expression in E. coli": "soluble"}
{"seqText": "MHRTARNFAEIKPNLLFRKAKMARKSAEKYVAKKIQVPELQGEALFGLHSVLEAIRSGKRDFHSVFLKKAVENRADSDARIKEILSRIDELGIQKTLLTDDQLDRLTEFQLHNGICMDASALQFSNFEPKTVSIFVDKVLDPGNLGAIGRSAWYFGADGLGLVKGRGPKSITPAMIKSSCGALEHLPVQQFLNFNEFRDKIKAAGGELVATCDPGAAEKAGISAKSLDQWTPEKPVGIVLGDEGVGISRGILNLCDTVISISPVRKDGSNVTSLNVSVVAGILLHHISLQNRTN", "soluble on expression in E. coli": "not soluble"}
{"seqText": "MKNKTKNATLKSIIDVILYENPSTQDEIAERLGITRRYVTKLLQPLIREGVVRRAYIVDIKKFDEFPELFGEEVTSREYAGSFFIKEILRDMAQHVCKQLNKSFRSLEEYDEDLANEALKMDYITNTMHEKVRSSVDTAIAMNPYSEFSKTMAFTEIAYDLERIGDHSAIIANFAIKESYEVDPAMMEYLRDMFSIAVEMVKTAMDAFLNEKLELKATLMSLEDDIHRIQKNALNCVATQMAETPFEDKERSTYYISLSRVVKTLERIADISIEIFDTAGEYYRNIPRTTTPERFRRREREES", "soluble on expression in E. coli": "soluble"}
